System: gene editing with dCas9
protocolNotes: Screen of 322 new SSAP proteins, gene editing activity with dCas9 (Table 5)
Format: cell-based
recordedConditions: normalized
Collected dCas9 with SSAP activity (normalized) values appear next to each entry.

SSAP_225: SEQ ID NO: 394; Actinocrispum wychmicini (protein, listed as Actinocrispum wychmicini) SQTVTAAVAQRDNGAQALIAKYRTDFAQVLPSHLRPTTFVRLSQGLLRRNVKLAEAAERNPASFLAALLECARLGHDPGTDQFALVPFNDRKRNTVEVVGIEQYQGVIERMYRAGAVRSVKAEVVRAADPFEYAPDVMDRPGHKPNWFADRGELIGVYAYAEFFDGSTSRVVMMNRETVMAHKAKSRGATSEDSPWQAWEESMWLKTAVHELEKWVPTSSEDRRAARDGTADPAPVEVPRVADEVLDADLVEDDHADHPTATPTGDVR    −0.602

stdin: Complete the entry with dCas9 with SSAP activity (normalized) for SSAP_160: SEQ ID NO: 329; Veillonellaceae bacterium DNF00626 (protein, Veillonellaceae bacterium DNF00626) KTTGGLQQQQQQQAQALQNGGTTLKGYLQAMMPEIKKALPTVMTPERFTRIVMTTISTNPALQNCTPQSFLGAVMQAAQLGVEPNTPLGQAYLIPYGNQVQFQLGYKGLIDLAYRSGEVQSLQAHEVYQNDTFEYELGLNPKLKHIPALTNRGDVILYYAVIKFKNGGEGFEVMSKEDVEAFAKSKSKTYGRGPWQTDFDEMAKKTVLKKVLKYAPMKTDFIRAVATDETVKSSVAEQMADLPDETVTIDTEAQVVVDKETGEVKS
stdout: −0.763
